System: Rattus norvegicus
Test: Reversal of clonidine-induced mydriasis in rat, after intravenous administration
Type: functional
Conditions: read-out: ID50 (the source's name)
This listing pairs compounds with measured ED50.
State just the number; it will be interpreted in mg/kg.

Just so you know, measured ED50 for COC(=O)[C@@H]1[C@H]2C[C@H]3c4[nH]c5ccccc5c4CCN3C[C@@H]2CC[C@@H]1O [YOHIMBINE] came out at 0.185

Just so you know, measured ED50 for COc1ccc2c(c1)CCN1C[C@H]3CCCN(S(C)(=O)=O)[C@@H]3C[C@@H]21 came out at 0.0065

Just so you know, measured ED50 for COc1ccc2c(c1)CCN1CC3CCCN(S(C)(=O)=O)C3CC21 (stereo not given) came out at 0.013

Pending compound:
Just so you know, measured ED50 for c1ccc2c(c1)OCC(C1=NCCN1)O2 (stereo not given) [IDAZOXAN] came out at 0.017
